molecular target: DRB5*01:01 (Homo sapiens, UniProt P01903+Q30154); construct: EBV transformed homozygous cell lines were used as sources of MHC molecules; endogenous in cells; host or cells: EBV transformed homozygous cell lines; test: HLA class II peptide binding, inhibition of radiolabeled peptide binding to purified MHC; conditions: Other DR, competition with radiolabeled peptide, two-day incubation, three or more independent experiments
Ends that are not written are not given here.
quantity measured: pIC50
# pIC50: negative log10 of molar concentration; output just the value

Consider the reported pIC50 for these sequences:
NQDFTNRINKLKNS [Fibrinogen 78–91 WT]    7.64
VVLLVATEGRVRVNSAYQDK [Aggrecan 84–103 WT]    7.80

[in] Provide one value: measured pIC50 of LQYMRADQAAGGLR [Collagen II 1236–1249 WT]
[out] 5.05

[in] Provide one value: measured pIC50 of SAVRLRSSVPGVR [Vimentin 66–78 WT]
[out] 5.65
